experiment: PK characteristics in humans (plasma, LC/MS/MS); type: in vivo, human; conditions: human, plasma, oral, 80 mg, Day 15, 80 mg, n=2, mean; read-out: Tmax
MEASURED_METRIC: Tmax (h)

INSERT INTO assay_data (compound, measured_metric, numeric_result) VALUES
  ('Nc1cc(C(F)(F)F)c(-c2nc(N3CCOCC3)c3nc(-c4cccc(NS(=O)(=O)CCCF)c4F)ccc3n2)cn1 [CMPD A]', 'Tmax', 14);

----------
test: PK characteristics in humans (plasma, LC/MS/MS); assay type: in vivo, human; conditions: human, plasma, oral, 20 mg, Day 1, 20 mg, n=1; read-out: Tmax
MEASURED_METRIC: Tmax

INSERT INTO measurements (compound, measured_metric, result) VALUES
  ('Nc1cc(C(F)(F)F)c(-c2nc(N3CCOCC3)c3nc(-c4cccc(NS(=O)(=O)CCCF)c4F)ccc3n2)cn1 [CMPD A]', 'Tmax', '8 h');

----------
Test: PK characteristics in humans (plasma, LC/MS/MS)
Format: in vivo, human
Conditions: human, plasma, oral, 240 mg, Day 15, 240 mg, n=2, mean; read-out: Cmax
Experimental: A pharmaceutical formulation of the disclosure comprising the active ingredient N-(3-(2-(6-amino-4-(trifluoromethyl)pyridin-3-yl)-4-morpholinopyrido[3,2-d]pyrimidin-6-yl)-2-fluorophenyl)-3-fluoropropane-1-sulfonamide was evaluated for safety/tolerability and preliminary efficacy in eligible human subjects with advanced solid tumors, and the pharmacokinetic (PK) profile of the active ingredient was investigated for each subject. Eligibility criteria for inclusion in this study included: […]
MEASURED_METRIC: Cmax (ng/mL)

INSERT INTO assay_data (structure_smiles, numeric_result) VALUES
  ('Nc1cc(C(F)(F)F)c(-c2nc(N3CCOCC3)c3nc(-c4cccc(NS(=O)(=O)CCCF)c4F)ccc3n2)cn1', 954);

----------
experiment: PK characteristics in humans (plasma, LC/MS/MS); type: in vivo, human; conditions: human, plasma, oral, 20 mg, Day 15, 20 mg, n=1; read-out: T1/2 (converted)
MEASURED_METRIC: half-life (h)

INSERT INTO measurements (structure_smiles, numeric_result) VALUES
  ('Nc1cc(C(F)(F)F)c(-c2nc(N3CCOCC3)c3nc(-c4cccc(NS(=O)(=O)CCCF)c4F)ccc3n2)cn1', 127);

----------
assay: PK characteristics in humans (plasma, LC/MS/MS); assay type: in vivo, human; conditions: human, plasma, oral, 40 mg, Day 15, 40 mg, n=2, mean; read-out: Tmax
MEASURED_METRIC: Tmax

INSERT INTO results (structure_smiles, measured_metric, result) VALUES
  ('Nc1cc(C(F)(F)F)c(-c2nc(N3CCOCC3)c3nc(-c4cccc(NS(=O)(=O)CCCF)c4F)ccc3n2)cn1', 'Tmax', '4 h');

----------
test: PK characteristics in humans (plasma, LC/MS/MS); format: in vivo, human; conditions: human, plasma, oral, 400 mg, Day 15, 400 QD mg, n=2, mean; read-out: AUC0-24
MEASURED_METRIC: AUC(0-t) (ng·h/mL)

INSERT INTO assay_data (compound, numeric_result) VALUES
  ('Nc1cc(C(F)(F)F)c(-c2nc(N3CCOCC3)c3nc(-c4cccc(NS(=O)(=O)CCCF)c4F)ccc3n2)cn1 [CMPD A]', 33400);

----------
experiment: PK characteristics in humans (plasma, LC/MS/MS); type: in vivo, human; conditions: human, plasma, oral, 40 mg, Day 1, 40 mg, n=2, mean; read-out: T1/2 (converted)
MEASURED_METRIC: half-life (h)

INSERT INTO results (structure_smiles, measured_metric, numeric_result) VALUES
  ('Nc1cc(C(F)(F)F)c(-c2nc(N3CCOCC3)c3nc(-c4cccc(NS(=O)(=O)CCCF)c4F)ccc3n2)cn1', 'half-life', 17.9);

----------
experiment: PK characteristics in humans (plasma, LC/MS/MS); format: in vivo, human; conditions: human, plasma, oral, 10 mg, Day 1, 10 mg, n=1; read-out: T1/2 (converted)
MEASURED_METRIC: half-life (h)

INSERT INTO results (compound, u, numeric_result) VALUES
  ('Nc1cc(C(F)(F)F)c(-c2nc(N3CCOCC3)c3nc(-c4cccc(NS(=O)(=O)CCCF)c4F)ccc3n2)cn1 [CMPD A]', 'h', 16.1);

----------
Test: PK characteristics in humans (plasma, LC/MS/MS)
Type: in vivo, human
Conditions: human, plasma, oral, 240 mg, Day 15, 240 mg, n=2, mean; read-out: T1/2 (converted)
Method: A pharmaceutical formulation of the disclosure comprising the active ingredient N-(3-(2-(6-amino-4-(trifluoromethyl)pyridin-3-yl)-4-morpholinopyrido[3,2-d]pyrimidin-6-yl)-2-fluorophenyl)-3-fluoropropane-1-sulfonamide was evaluated for safety/tolerability and preliminary efficacy in eligible human subjects with advanced solid tumors, and the pharmacokinetic (PK) profile of the active ingredient was investigated for each subject. Eligibility criteria for inclusion in this study included: […]
MEASURED_METRIC: half-life

INSERT INTO assay_data (structure_smiles, result) VALUES
  ('Nc1cc(C(F)(F)F)c(-c2nc(N3CCOCC3)c3nc(-c4cccc(NS(=O)(=O)CCCF)c4F)ccc3n2)cn1', '19.7 h');

----------
test: PK characteristics in humans (plasma, LC/MS/MS); format: in vivo, human; settings: human, plasma, oral, 400 mg, steady state, 400 BID mg, n=1, cancer patients; read-out: AUC0-24h
MEASURED_METRIC: AUC(0-t) (µg·h/mL)

INSERT INTO assay_data (structure_smiles, measured_metric, numeric_result) VALUES
  ('Nc1cc(C(F)(F)F)c(-c2nc(N3CCOCC3)c3nc(-c4cccc(NS(=O)(=O)CCCF)c4F)ccc3n2)cn1', 'AUC(0-t)', 110);

----------
experiment: PK characteristics in humans (plasma, LC/MS/MS); assay type: in vivo, human; settings: human, plasma, oral, 40 mg, Day 1, 40 mg, n=2, mean; read-out: Tmax
MEASURED_METRIC: Tmax (h)

INSERT INTO assay_data (molecule, u, numeric_result) VALUES
  ('Nc1cc(C(F)(F)F)c(-c2nc(N3CCOCC3)c3nc(-c4cccc(NS(=O)(=O)CCCF)c4F)ccc3n2)cn1 [CMPD A]', 'h', 5);

----------
test: PK characteristics in humans (plasma, LC/MS/MS); type: in vivo, human; details: human, plasma, po, human subjects, oral tablets; read-out: t1/2 (rate of elimination)
MEASURED_METRIC: half-life

INSERT INTO results (compound, result) VALUES
  ('Nc1cc(C(F)(F)F)c(-c2nc(N3CCOCC3)c3nc(-c4cccc(NS(=O)(=O)CCCF)c4F)ccc3n2)cn1 [CMPD A]', '10 to 25 h');

----------
test: PK characteristics in humans (plasma, LC/MS/MS); format: in vivo, human; conditions: human, plasma, oral, 40 mg, Day 1, 40 mg, individual subjects; read-out: T1/2 (converted)
MEASURED_METRIC: half-life (h)

INSERT INTO results (structure_smiles, numeric_result) VALUES
  ('Nc1cc(C(F)(F)F)c(-c2nc(N3CCOCC3)c3nc(-c4cccc(NS(=O)(=O)CCCF)c4F)ccc3n2)cn1', 18.2);

----------
experiment: PK characteristics in humans (plasma, LC/MS/MS); format: in vivo, human; details: human, plasma, oral, 20 mg, steady state, 20 QD mg, n=1, cancer patients; read-out: Cmax
MEASURED_METRIC: Cmax (ng/mL)

INSERT INTO assay_data (compound, measured_metric, numeric_result) VALUES
  ('Nc1cc(C(F)(F)F)c(-c2nc(N3CCOCC3)c3nc(-c4cccc(NS(=O)(=O)CCCF)c4F)ccc3n2)cn1 [CMPD A]', 'Cmax', 149);

----------
assay: PK characteristics in humans (plasma, LC/MS/MS); type: in vivo, human; conditions: human, plasma, oral, 20 mg, Day 1, 20 mg, n=1; read-out: Cmax
MEASURED_METRIC: Cmax (µg/mL)

INSERT INTO assay_data (structure_smiles, numeric_result) VALUES
  ('Nc1cc(C(F)(F)F)c(-c2nc(N3CCOCC3)c3nc(-c4cccc(NS(=O)(=O)CCCF)c4F)ccc3n2)cn1', 0.101);

----------
experiment: PK characteristics in humans (plasma, LC/MS/MS); format: in vivo, human; conditions: human, plasma, oral, 20 mg, Day 15, 20 mg, n=1; read-out: AUC0-24
MEASURED_METRIC: AUC(0-t) (ng·h/mL)

INSERT INTO results (molecule, measured_metric, numeric_result) VALUES
  ('Nc1cc(C(F)(F)F)c(-c2nc(N3CCOCC3)c3nc(-c4cccc(NS(=O)(=O)CCCF)c4F)ccc3n2)cn1 [CMPD A]', 'AUC(0-t)', 3160);
